Assay: in vitro
Details: human, hela cells, % viability

| compound | viability at 28.5 h, 10 µM (%) |
| --- | --- |
| Cc1nc2cc(Cl)ccc2n1CCO | 100 |
| O=C1NC/C=C/CC2(CCN(Cc3c[nH]c4ccccc34)CC2)C(=O)NCCOc2ccccc21 | 100 |
| O=C1COc2ccccc2C/C=C/C[C@H]2CNCC[C@H]2N1 | 101 |
| O=C(O)CC1SC(Nc2ccc(F)cc2F)=NC1=O (stereo not shown) | 99.3 |
| CC1CN(Cc2cccc(CNc3nccnc3C#N)c2)CCO1 (stereo not shown) | 94 |
| Cc1ccc(OCC(=O)Nc2ncc(C(F)(F)F)cc2Cl)c(Br)c1 | 95.1 |
| COc1cccc(OC)c1-c1cn2ccnc2c(N(C)CCN(C)C)n1 | 97.3 |
| O=C(CSc1nnc(-c2ccncc2)n1-c1ccccc1)N/N=C/c1c[nH]c2ccc(Br)cc12 | 91.5 |
| O=C(c1coc2ccc(O)c(CN3CCCCC3)c12)C1CC1 [CBK263206C] | 93.7 |
| O=C(COc1ccc2c(c1)OCO2)NCc1ccccn1 | 95.3 |

The reported numbers originate from paper PMC12040169.
